test-system: T1, full-length human KLB on HEK293/hKLB/SRE-luc cells (human, UniProt Q86Z14 1-1044)
T1 construct: amino acids 1-1044 of NP_783864.1
T1 sequence: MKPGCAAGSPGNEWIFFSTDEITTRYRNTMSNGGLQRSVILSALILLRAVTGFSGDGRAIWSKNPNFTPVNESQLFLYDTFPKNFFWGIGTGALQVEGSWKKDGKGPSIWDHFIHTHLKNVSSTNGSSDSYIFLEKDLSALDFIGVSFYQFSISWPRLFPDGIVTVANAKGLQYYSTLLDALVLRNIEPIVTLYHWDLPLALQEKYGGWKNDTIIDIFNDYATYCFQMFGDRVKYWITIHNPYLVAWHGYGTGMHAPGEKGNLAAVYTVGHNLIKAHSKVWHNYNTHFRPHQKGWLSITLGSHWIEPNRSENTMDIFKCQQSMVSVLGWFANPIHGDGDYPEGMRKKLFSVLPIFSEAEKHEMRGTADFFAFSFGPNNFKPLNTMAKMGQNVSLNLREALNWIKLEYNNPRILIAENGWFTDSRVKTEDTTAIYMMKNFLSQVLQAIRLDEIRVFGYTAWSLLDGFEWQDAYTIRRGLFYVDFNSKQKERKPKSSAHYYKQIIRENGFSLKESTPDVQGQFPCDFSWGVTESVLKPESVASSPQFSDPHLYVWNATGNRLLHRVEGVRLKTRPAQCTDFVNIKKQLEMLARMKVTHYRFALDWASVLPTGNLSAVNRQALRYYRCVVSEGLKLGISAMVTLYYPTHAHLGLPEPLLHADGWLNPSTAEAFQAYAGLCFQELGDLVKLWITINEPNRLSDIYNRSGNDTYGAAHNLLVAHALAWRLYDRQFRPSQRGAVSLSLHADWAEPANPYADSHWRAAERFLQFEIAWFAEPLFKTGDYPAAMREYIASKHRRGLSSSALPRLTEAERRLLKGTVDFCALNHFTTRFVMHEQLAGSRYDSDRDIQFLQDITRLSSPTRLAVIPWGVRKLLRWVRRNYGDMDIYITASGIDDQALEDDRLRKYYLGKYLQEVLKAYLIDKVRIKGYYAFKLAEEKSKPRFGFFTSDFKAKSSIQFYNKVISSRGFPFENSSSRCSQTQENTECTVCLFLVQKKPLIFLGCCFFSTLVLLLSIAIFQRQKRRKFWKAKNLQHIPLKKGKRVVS
assay-explanation: FACS on stable HEK293 cells
Each entry below lists one item and its recorded binding ratio to unstained cells value.
measurement-kind: binding ratio to unstained cells (fold)

- H4H8878P (antibody, V domains shown, human IgG4 Fc (H4H prefix)) VH: QVQLVESGGGVVQPGRSLRLSCAASGFTLNTYGMHWIRQTPGKGLEWVSLISYDETKEYYVDSVKGRFTISRDNSKNTLYLQMNSVRVEDTAVYYCAKPLTGSTDYYYGLDVWGQGTTVTVSS VL: DIQMTQSPSYVSASVGDRVIITCRASQDISSWLAWYQQKPGKAPKLLIYVTSSLESGVPSRFSGSGSGTDFTLTISGLQPEDFATYYCQQVKSFPPTFGPGTKVDIK: 11
- H2aM8092N (antibody, V domains shown, mouse IgG2 Fc (H2aM prefix); also called H2M8092N) VH: QVQLQESGPGLVKPSETLSLTCTVSGGSISSYYWSWIRQPPGKGLDWIGHIYYSGTTYYNPSLKSRVSISLDTSKNQFSLKLSSVTAADTAVYYCARHLRGYSSGREFDYWGQGTLVTVSS VL: DIQMTQSPSSLSASVGGRVSLTCRASQSIFSYLNWYQQKPGKAPKLLIYAASNLQSGVPSRFSGSGSGTDFTLTISSLQPEDFATYSCQQSYNIPYTFGQGTKLEIK: 15
- H2aM8832N (antibody, V domains shown, mouse IgG2 Fc (H2aM prefix)) VH: QVQLVESGGGVVQPGRSLRLSCAASGFTFSRYGMHWVRQAPGKGLEWVAVIWYDGTNKYYEDSLKGRFTISRDNSKNTLYLQMNSLRAEDSAVYYCARDQGKYIDYWGQGTLVTVSS VL: AIQMTQSPSSLSASVGDRVTITCRTSQDIRNDLGWYQQKPGKVPNLLIYAASTLQSGVPSRFSGSGSGTDFTLTISSLQPEDFATYYCLQDYNYPFTFGPGTKVDIK: 2
